# reported inhibition at 1000 µM; entries follow
system-tested: UniProtKB P22303
assay-overview: biochemical
Format: biochemical
run-parameters: read-out: AChE% inhibition 10^−3 M
readout: inhibition at 1000 µM (%)

>>> recorded_value("CC(=NN=c1scc(-c2ccc(Cl)cc2)n1C)c1ccc(N2CCCCC2)cc1 [D1d]")
55.7
>>> recorded_value("C=CCn1c(-c2ccc(Cl)cc2)csc1=NN=C(C)c1ccc(N2CCCCC2)cc1 [D2d]")
31.2
>>> recorded_value("CCn1c(-c2ccc(C#N)cc2)csc1=NN=C(C)c1ccc(N2CCCCC2)cc1 [D3f]")
57.4
>>> recorded_value("CCn1c(-c2ccc(F)cc2)csc1=NN=C(C)c1ccc(N2CCCCC2)cc1 [D3b]")
40.2
>>> recorded_value("CC(=NN=c1scc(-c2ccc(Cl)c(Cl)c2)n1C)c1ccc(N2CCCCC2)cc1 [D1h]")
27.6
>>> recorded_value("CCn1c(-c2ccc(C)cc2)csc1=NN=C(C)c1ccc(N2CCCCC2)cc1 [D3a]")
56.2
>>> recorded_value("CCn1c(-c2ccc(C)cc2C)csc1=NN=C(C)c1ccc(N2CCCCC2)cc1 [D3i]")
40.9
>>> recorded_value("CC(=NN=c1scc(-c2ccc(C)cc2)n1C)c1ccc(N2CCCCC2)cc1 [D1a]")
40.5
>>> recorded_value("CCn1c(-c2ccc(Cl)cc2Cl)csc1=NN=C(C)c1ccc(N2CCCCC2)cc1 [D3g]")
26.7

====

system-tested: AChE enzyme (Homo sapiens)
Sequence (P22303 32-614): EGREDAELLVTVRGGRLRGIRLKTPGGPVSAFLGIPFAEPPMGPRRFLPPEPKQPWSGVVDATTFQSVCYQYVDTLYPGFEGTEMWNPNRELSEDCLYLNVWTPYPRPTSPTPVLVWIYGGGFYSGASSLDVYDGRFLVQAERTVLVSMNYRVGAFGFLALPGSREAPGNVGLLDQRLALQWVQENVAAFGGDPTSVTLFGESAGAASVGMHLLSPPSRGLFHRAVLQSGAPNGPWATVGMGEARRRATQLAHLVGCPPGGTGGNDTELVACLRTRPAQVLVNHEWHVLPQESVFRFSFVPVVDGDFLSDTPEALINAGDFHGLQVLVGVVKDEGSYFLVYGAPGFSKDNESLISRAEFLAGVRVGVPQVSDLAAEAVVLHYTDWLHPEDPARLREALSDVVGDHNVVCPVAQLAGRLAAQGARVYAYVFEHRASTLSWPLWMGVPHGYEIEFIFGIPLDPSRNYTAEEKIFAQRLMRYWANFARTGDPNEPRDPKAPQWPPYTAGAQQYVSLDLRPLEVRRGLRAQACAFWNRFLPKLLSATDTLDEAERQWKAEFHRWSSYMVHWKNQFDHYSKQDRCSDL
assay-overview: biochemical
Type: biochemical
run-parameters: read-out: AChE% inhibition 10^−4 M
readout: inhibition at 100 µM

>>> recorded_value("CCn1c(-c2ccc(Cl)cc2Cl)csc1=NN=C(C)c1ccc(N2CCCCC2)cc1 [D3g]")
"20.9%"
>>> recorded_value("C=CCn1c(-c2ccc(OC)cc2)csc1=NN=C(C)c1ccc(N2CCCCC2)cc1 [D2e]")
"25.3%"
>>> recorded_value("CCn1c(-c2ccc(C#N)cc2)csc1=NN=C(C)c1ccc(N2CCCCC2)cc1 [D3f]")
"25.4%"
>>> recorded_value("CC(=NN=c1scc(-c2ccc(Cl)c(Cl)c2)n1C)c1ccc(N2CCCCC2)cc1 [D1h]")
"14.7%"
>>> recorded_value("CCn1c(-c2ccc([N+](=O)[O-])cc2)csc1=NN=C(C)c1ccc(N2CCCCC2)cc1 [D3c]")
"38.2%"
>>> recorded_value("CCn1c(-c2ccc(C)cc2C)csc1=NN=C(C)c1ccc(N2CCCCC2)cc1 [D3i]")
"22.1%"
>>> recorded_value("CCn1c(-c2ccc(Cl)c(Cl)c2)csc1=NN=C(C)c1ccc(N2CCCCC2)cc1 [D3h]")
"23.7%"
>>> recorded_value("C=CCn1c(-c2ccc(Cl)c(Cl)c2)csc1=N/N=C(\\C)c1ccc(N2CCCCC2)cc1 [D2h]")
"20.3%"
>>> recorded_value("CC(=NN=c1scc(-c2ccc(C)cc2)n1C)c1ccc(N2CCCCC2)cc1 [D1a]")
"36.5%"
>>> recorded_value("CC(=NN=c1scc(-c2ccc(Cl)cc2Cl)n1C)c1ccc(N2CCCCC2)cc1 [D1g]")
"16.9%"
>>> recorded_value("CCn1c(-c2ccc(F)cc2)csc1=NN=C(C)c1ccc(N2CCCCC2)cc1 [D3b]")
"35.8%"
>>> recorded_value("C=CCn1c(-c2ccc(Cl)cc2Cl)csc1=NN=C(C)c1ccc(N2CCCCC2)cc1 [D2g]")
"31.6%"
>>> recorded_value("COc1ccc(-c2csc(=NN=C(C)c3ccc(N4CCCCC4)cc3)n2C)cc1 [D1e]")
"84.1%"
>>> recorded_value("CCn1c(-c2ccc(C)cc2)csc1=NN=C(C)c1ccc(N2CCCCC2)cc1 [D3a]")
"37.5%"
>>> recorded_value("C=CCn1c(-c2ccc(F)cc2)csc1=NN=C(C)c1ccc(N2CCCCC2)cc1 [D2b]")
"41.7%"
>>> recorded_value("CC(=NN=c1scc(-c2ccc([N+](=O)[O-])cc2)n1C)c1ccc(N2CCCCC2)cc1 [D1c]")
"90.3%"
>>> recorded_value("CC(=NN=c1scc(-c2ccc(Cl)cc2)n1C)c1ccc(N2CCCCC2)cc1 [D1d]")
"29.6%"
>>> recorded_value("C=CCn1c(-c2ccc([N+](=O)[O-])cc2)csc1=NN=C(C)c1ccc(N2CCCCC2)cc1 [D2c]")
"31.4%"
>>> recorded_value("C=CCn1c(-c2ccc(C)cc2)csc1=NN=C(C)c1ccc(N2CCCCC2)cc1 [D2a]")
"30.1%"
>>> recorded_value("CCn1c(-c2ccc(Cl)cc2)csc1=NN=C(C)c1ccc(N2CCCCC2)cc1 [D3d]")
"23.3%"
>>> recorded_value("C=CCn1c(-c2ccc(C)cc2C)csc1=N/N=C(\\C)c1ccc(N2CCCCC2)cc1 [D2i]")
"20.5%"
>>> recorded_value("CCn1c(-c2ccc(OC)cc2)csc1=NN=C(C)c1ccc(N2CCCCC2)cc1 [D3e]")
"21.6%"

====

system-tested: AChE enzyme (Homo sapiens)
readout: IC50

>>> recorded_value("CCn1c(-c2ccc(C#N)cc2)csc1=NN=C(C)c1ccc(N2CCCCC2)cc1")
"> 100 µM"
>>> recorded_value("CCn1c(-c2ccc([N+](=O)[O-])cc2)csc1=NN=C(C)c1ccc(N2CCCCC2)cc1")
"> 1000 µM"
>>> recorded_value("CC(=NN=c1scc(-c2ccc(Cl)cc2Cl)n1C)c1ccc(N2CCCCC2)cc1")
"> 100 µM"
>>> recorded_value("CCn1c(-c2ccc(C)cc2C)csc1=NN=C(C)c1ccc(N2CCCCC2)cc1")
"> 1000 µM"
>>> recorded_value("CC(=NN=c1scc(-c2ccc(F)cc2)n1C)c1ccc(N2CCCCC2)cc1")
"> 1000 µM"

====

system-tested: BChE enzyme (Homo sapiens)
Sequence (P06276 29-602, species assumed): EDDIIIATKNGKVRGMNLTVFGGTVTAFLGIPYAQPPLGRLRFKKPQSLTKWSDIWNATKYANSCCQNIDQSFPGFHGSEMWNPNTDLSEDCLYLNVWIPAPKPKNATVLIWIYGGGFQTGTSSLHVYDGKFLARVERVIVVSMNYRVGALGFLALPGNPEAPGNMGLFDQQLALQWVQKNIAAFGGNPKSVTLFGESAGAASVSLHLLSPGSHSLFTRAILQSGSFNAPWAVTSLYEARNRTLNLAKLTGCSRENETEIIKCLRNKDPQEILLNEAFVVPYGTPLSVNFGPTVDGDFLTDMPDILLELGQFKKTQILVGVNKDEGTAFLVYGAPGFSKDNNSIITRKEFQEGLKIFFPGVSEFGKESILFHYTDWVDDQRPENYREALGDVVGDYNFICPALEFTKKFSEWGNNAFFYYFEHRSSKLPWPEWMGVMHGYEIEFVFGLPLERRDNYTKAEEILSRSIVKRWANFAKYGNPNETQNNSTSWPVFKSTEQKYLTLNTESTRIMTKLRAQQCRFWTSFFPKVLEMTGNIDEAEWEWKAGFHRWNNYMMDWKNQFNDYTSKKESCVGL
assay-overview: biochemical
run-parameters: read-out: BChE% inhibition 10^−3 M
# reported inhibition at 1000 µM; entries follow
readout: inhibition at 1000 µM (%)

>>> recorded_value("CCn1c(-c2ccc(Cl)c(Cl)c2)csc1=NN=C(C)c1ccc(N2CCCCC2)cc1 [D3h]")
38.7
>>> recorded_value("C=CCn1c(-c2ccc(Cl)cc2)csc1=NN=C(C)c1ccc(N2CCCCC2)cc1 [D2d]")
30.5
>>> recorded_value("CCn1c(-c2ccc([N+](=O)[O-])cc2)csc1=NN=C(C)c1ccc(N2CCCCC2)cc1 [D3c]")
33.9
>>> recorded_value("C=CCn1c(-c2ccc(F)cc2)csc1=NN=C(C)c1ccc(N2CCCCC2)cc1 [D2b]")
38.2
>>> recorded_value("CC(=NN=c1scc(-c2ccc(C)cc2)n1C)c1ccc(N2CCCCC2)cc1 [D1a]")
32.5
>>> recorded_value("CCn1c(-c2ccc(C)cc2)csc1=NN=C(C)c1ccc(N2CCCCC2)cc1 [D3a]")
45.4
>>> recorded_value("C=CCn1c(-c2ccc([N+](=O)[O-])cc2)csc1=NN=C(C)c1ccc(N2CCCCC2)cc1 [D2c]")
35
>>> recorded_value("CC(=NN=c1scc(-c2ccc(C)cc2C)n1C)c1ccc(N2CCCCC2)cc1 [D1i]")
40.9

====

# reported inhibition at 100 µM; entries follow
system-tested: UniProt P06276
assay-overview: biochemical
run-parameters: read-out: BChE% inhibition 10^−4 M
Excerpt: The assay was completed in two steps. The potential inhibitory effects of the obtained molecules on the AChE and BChE enzymes was examined using a variation of the Ellman method.[31,33,41–43] […] The “BioTek-Synergy H1 Microplate Reader (United States)” was employed to establish and follow the enzyme protocol for spectrophotometric measurements. […]
readout: inhibition at 100 µM (%)

>>> recorded_value("CCn1c(-c2ccc([N+](=O)[O-])cc2)csc1=NN=C(C)c1ccc(N2CCCCC2)cc1")
27.3
>>> recorded_value("C=CCn1c(-c2ccc(C)cc2)csc1=NN=C(C)c1ccc(N2CCCCC2)cc1")
20.9
>>> recorded_value("CC(=NN=c1scc(-c2ccc(Cl)cc2Cl)n1C)c1ccc(N2CCCCC2)cc1")
31.1
>>> recorded_value("CC(=NN=c1scc(-c2ccc(C)cc2)n1C)c1ccc(N2CCCCC2)cc1")
20.4
>>> recorded_value("CCn1c(-c2ccc(C)cc2)csc1=NN=C(C)c1ccc(N2CCCCC2)cc1")
25.3
>>> recorded_value("C=CCn1c(-c2ccc(Cl)cc2Cl)csc1=NN=C(C)c1ccc(N2CCCCC2)cc1")
24
>>> recorded_value("C=CCn1c(-c2ccc(Cl)c(Cl)c2)csc1=N/N=C(\\C)c1ccc(N2CCCCC2)cc1")
31.5
>>> recorded_value("CC(=NN=c1scc(-c2ccc(F)cc2)n1C)c1ccc(N2CCCCC2)cc1")
19.6
>>> recorded_value("CCn1c(-c2ccc(OC)cc2)csc1=NN=C(C)c1ccc(N2CCCCC2)cc1")
30.3
>>> recorded_value("CC(=NN=c1scc(-c2ccc(C#N)cc2)n1C)c1ccc(N2CCCCC2)cc1")
17
>>> recorded_value("CCn1c(-c2ccc(Cl)c(Cl)c2)csc1=NN=C(C)c1ccc(N2CCCCC2)cc1")
32.5
>>> recorded_value("C=CCn1c(-c2ccc(F)cc2)csc1=NN=C(C)c1ccc(N2CCCCC2)cc1")
27.4
>>> recorded_value("CCn1c(-c2ccc(C#N)cc2)csc1=NN=C(C)c1ccc(N2CCCCC2)cc1")
21.1
>>> recorded_value("COc1ccc(-c2csc(=NN=C(C)c3ccc(N4CCCCC4)cc3)n2C)cc1")
17.9
>>> recorded_value("C=CCn1c(-c2ccc(C#N)cc2)csc1=NN=C(C)c1ccc(N2CCCCC2)cc1")
16.5
>>> recorded_value("CCn1c(-c2ccc(Cl)cc2)csc1=NN=C(C)c1ccc(N2CCCCC2)cc1")
21.3
>>> recorded_value("C=CCn1c(-c2ccc(OC)cc2)csc1=NN=C(C)c1ccc(N2CCCCC2)cc1")
17.2
>>> recorded_value("C=CCn1c(-c2ccc(Cl)cc2)csc1=NN=C(C)c1ccc(N2CCCCC2)cc1")
20
>>> recorded_value("CC(=NN=c1scc(-c2ccc(C)cc2C)n1C)c1ccc(N2CCCCC2)cc1")
29.5
